Quick reference: pest or weed control at 250 g/ha of the listed items.
# Test system: giant foxtail (Setaria faberi)
# Method: Test G Post-Emergence Protocol
# Type: in vivo
# Run conditions: Setaria faberi, post-emergence, 312 h, 250 g ai/ha, evaluated after 13 days, 100=total damage to plant, 0=no damage to plant, read-out: Foxtail, Giant damage rating
Answer in %, number only, no unit symbol.

Example compounds with recorded pest or weed control at 250 g/ha:
Compound | pest or weed control at 250 g/ha / %
CON1C[C@H](c2ccc(C(F)(F)F)cc2)[C@@H](C(=O)Nc2cccc(F)c2F)C1=O (racemic) | 70
CN1C[C@H](c2ccc(C(F)(F)F)cc2)[C@@H](C(=O)Nc2cnccc2[N+](=O)[O-])C1=O (racemic) | 0
CC(C)Oc1cc(OC(F)(F)F)cc(C2CN(C)C(=O)C2C(=O)Nc2cccc(F)c2F)c1 (stereo not shown) | 70

Okay, now this compound:
Exercise: Look up pest or weed control at 250 g/ha of Cc1cc([C@H]2CN(C)C(=O)[C@@H]2C(=O)Nc2ccccc2S(C)(=O)=O)cc(C(F)(F)F)c1 (racemic) and report it.
Solution: 80
